Answer each item with its documented recombinant barcode read abundance (log10).
Assay: recombinant barcode read abundance after kanamycin selection (control-corrected) (log10(CPM+1)); higher = more efficient recombination; sequences stand for … in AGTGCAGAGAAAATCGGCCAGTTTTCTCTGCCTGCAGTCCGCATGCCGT…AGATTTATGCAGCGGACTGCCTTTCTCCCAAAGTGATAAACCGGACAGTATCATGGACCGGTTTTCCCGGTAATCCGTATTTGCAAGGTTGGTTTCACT; site = the 11-nt target;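 further: IS621 recombinase and bridge RNA in Escherichia coli cells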
// print number alone

The reported value for GGTCGCTCTTGGGTTCTAACCTGTTGCCT (site GGACGCTCTAG) in terms of recombinant barcode read abundance (log10) is 0.0961

// TTGTCGACTTGGGTTCTAACCTGTTGCCA (site TTGTCGACTTG) : recombinant barcode read abundance (log10) value = 0.087

Measured recombinant barcode read abundance (log10), TGTCAATCTTGGGTTCTAACCTGTTGCGT (site TGTCAATCTAC) : 0.543

Note to self: recombinant barcode read abundance (log10) recorded for ACTCCGTCTTGGGTTCTAACCTGTTGCCT (site ACTCCGTCTAG) was 1.28

The sequence listed as GGGTCCTCTTGGGTTCTAACCTGTTGCCC (site GGGTCCTCTCG) has a reported recombinant barcode read abundance (log10) of 0.0863

Entry GGCAGCTCTTGGGTTCTAACCTGTTGCTT (site GGCAGGTCTAA) — recorded recombinant barcode read abundance (log10) = 0.302

Data point: CCTGGGACTTGGGTTCTAACCTGTTGCGC (site CCTGGGACTGC) ; recombinant barcode read abundance (log10) = 1.24

Measured recombinant barcode read abundance (log10) of TGTGATCCTTGGGTTCTAACCTGTTGCAT (site TGTGATCCTAT) : 1.4

The value of recombinant barcode read abundance (log10) measured for the sequence CTAATTGCTTGGGTTCTAACCTGTTGCAA (site CTACTTGCTTT) turned out to be 0.0139

The reported recombinant barcode read abundance (log10) of the sequence GGTCAGTCTTGGGTTCTAACCTGTTGCGG (site GGTCAGTCTCC) was 1.84
